Attribution: patent US9266922B2

# tgt: HLA-A*0201 (Homo sapiens, UniProt P04439, D140Y/D185E/D98H/E176V/E277Q/G131W/G231S/I119V/I121R/I166T/I218V/L300P/L318F/N151K/N90K/P208A/P217A/Q86G/Q94H/R138H/R169H/T345S)
# protocol: iTOPIA EDS MHC peptide binding assay
# experimental-parameters: HLA-A*0201 monomer, relative to positive control peptide, 21° C. for 18 h
# Source text: MHC peptide binding assay using iTOPIA EDS Microtiter 96 well plates containing HLA class I MHC monomer loaded with the human β2-microglobulin and a “placeholder” peptide were used to evaluate peptide binding, affinity, and off-rate. The 502 nectin4 nonapeptides were first evaluated for their ability to bind to each MHC molecule in the peptide binding assay. […]
Residues, ends and D or L forms follow the SMILES beside them.
parameter-measured: % Binding (%)
Give just the number in %; leave the unit off.

{"columns": ["compound", "% Binding / %"],
 "data": [
  ["CC(C)C[C@H](NC(=O)[C@@H](NC(=O)[C@H](CO)NC(=O)[C@H](Cc1ccc(O)cc1)NC(=O)[C@H](CO)NC(=O)[C@@H](N)CCCNC(=N)N)[C@@H](C)O)C(=O)N[C@H](C(=O)N[C@H](C(=O)N[C@H](C(=O)O)C(C)C)[C@@H](C)O)[C@@H](C)O [Peptide 443] (H-RSYSTLTTV-OH; N-terminus and C-terminus assumed)", 68]
]}

// next entry
Provide only the value of recorded % Binding for CC[C@H](C)[C@H](NC(=O)[C@H](Cc1c[nH]cn1)NC(=O)[C@H](Cc1c[nH]c2ccccc12)NC(=O)[C@H](CC(C)C)NC(=O)[C@H](CC(N)=O)NC(=O)[C@H](CCC(N)=O)NC(=O)[C@@H](N)CC(=O)O)C(=O)NCC(=O)N[C@@H](CCCNC(=N)N)C(=O)O [Peptide 255]
62
